biological target: T1, human EphA4 (Homo sapiens, UniProt P54764); test: Affinity of humanized antibodies by SPR (Biacore T200); format: binding; conditions: human EphA4 extracellular region-SEAP-His; 1:1 binding model
T1 construct: made in house; not restated for the human SEAP-His protein
T1 sequence (P54764 20-547): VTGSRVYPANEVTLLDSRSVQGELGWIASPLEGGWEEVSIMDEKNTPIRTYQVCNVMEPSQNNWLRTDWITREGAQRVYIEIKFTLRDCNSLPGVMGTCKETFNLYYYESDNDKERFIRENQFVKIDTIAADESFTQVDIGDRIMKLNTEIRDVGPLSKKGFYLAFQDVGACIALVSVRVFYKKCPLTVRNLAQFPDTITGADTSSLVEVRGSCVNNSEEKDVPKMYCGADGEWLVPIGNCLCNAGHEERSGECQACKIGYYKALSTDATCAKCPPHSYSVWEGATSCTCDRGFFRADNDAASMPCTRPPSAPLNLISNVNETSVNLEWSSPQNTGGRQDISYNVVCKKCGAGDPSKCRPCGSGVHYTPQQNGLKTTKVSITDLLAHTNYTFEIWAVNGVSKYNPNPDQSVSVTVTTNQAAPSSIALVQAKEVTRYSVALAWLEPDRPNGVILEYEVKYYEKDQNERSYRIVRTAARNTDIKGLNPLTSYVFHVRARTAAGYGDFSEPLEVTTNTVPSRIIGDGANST
measured.attribute: ka (M⁻¹ s⁻¹)
Return type: number; implicit unit M⁻¹ s⁻¹.

>>> result("134 (antibody, V domains shown, synthetic humanized antibody heavy chain variable region sequence; synthetic humanized antibody light chain variable region sequence) VH: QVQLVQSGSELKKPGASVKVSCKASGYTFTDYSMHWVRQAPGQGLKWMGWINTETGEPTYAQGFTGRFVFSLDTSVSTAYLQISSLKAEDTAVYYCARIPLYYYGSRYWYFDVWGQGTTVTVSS VL: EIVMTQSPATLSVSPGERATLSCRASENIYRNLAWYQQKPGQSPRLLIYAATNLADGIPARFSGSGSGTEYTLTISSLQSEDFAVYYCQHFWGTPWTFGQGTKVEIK")
280000
>>> result("152 (antibody, V domains shown, synthetic humanized antibody heavy chain variable region sequence; synthetic humanized antibody light chain variable region sequence) VH: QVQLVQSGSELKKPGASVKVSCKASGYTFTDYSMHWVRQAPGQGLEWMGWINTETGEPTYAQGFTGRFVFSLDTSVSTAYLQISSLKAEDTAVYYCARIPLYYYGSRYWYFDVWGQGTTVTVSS VL: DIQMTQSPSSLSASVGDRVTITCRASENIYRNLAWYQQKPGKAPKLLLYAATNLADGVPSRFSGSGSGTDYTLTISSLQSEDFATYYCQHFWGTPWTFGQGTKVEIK")
400000

Now turn to the next molecule.
query: Read off the recorded ka for 144 (antibody, V domains shown, synthetic humanized antibody heavy chain variable region sequence; synthetic humanized antibody light chain variable region sequence) VH: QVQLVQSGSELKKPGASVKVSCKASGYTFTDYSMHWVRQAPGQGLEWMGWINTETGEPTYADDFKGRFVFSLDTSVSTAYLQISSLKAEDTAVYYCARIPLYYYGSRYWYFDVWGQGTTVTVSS VL: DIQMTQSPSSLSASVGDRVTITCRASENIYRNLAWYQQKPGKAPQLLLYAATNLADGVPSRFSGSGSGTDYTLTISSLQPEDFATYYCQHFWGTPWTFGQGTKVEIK
result: 400000
